Assay: Pharmacokinetics in Sprague-Dawley rats
Type: in vivo
Conditions: male, Sprague-Dawley, rat, plasma; oral solution 10 mg/kg, at 8 h
quantityKind: concentration at 8 h (nM)
Your answer is read as nM, so omit the unit and give the number.

Task: Name the recorded concentration at 8 h for "Nc1nc2ccc(SC(F)(F)F)cc2s1" .
Result: 400

---

Assay: Pharmacokinetics in Sprague-Dawley rats
Format: in vivo
Conditions: male, Sprague-Dawley, rat, plasma, intraperitoneal; 30 mg/kg i.p., 2 hours; read-out: total plasma concentration
quantityKind: concentration at 2 h (µM)
Your answer is read as µM, so omit the unit and give the number.

Task: Name the recorded concentration at 2 h for Nc1nc2ccc(SC(F)(F)F)cc2s1 [SKA-19] .
Result: 12
